# system_tested: Mitogen-activated protein kinase kinase kinase 7 (Homo sapiens) (UniProt O43318)
# Sequence (whole entry): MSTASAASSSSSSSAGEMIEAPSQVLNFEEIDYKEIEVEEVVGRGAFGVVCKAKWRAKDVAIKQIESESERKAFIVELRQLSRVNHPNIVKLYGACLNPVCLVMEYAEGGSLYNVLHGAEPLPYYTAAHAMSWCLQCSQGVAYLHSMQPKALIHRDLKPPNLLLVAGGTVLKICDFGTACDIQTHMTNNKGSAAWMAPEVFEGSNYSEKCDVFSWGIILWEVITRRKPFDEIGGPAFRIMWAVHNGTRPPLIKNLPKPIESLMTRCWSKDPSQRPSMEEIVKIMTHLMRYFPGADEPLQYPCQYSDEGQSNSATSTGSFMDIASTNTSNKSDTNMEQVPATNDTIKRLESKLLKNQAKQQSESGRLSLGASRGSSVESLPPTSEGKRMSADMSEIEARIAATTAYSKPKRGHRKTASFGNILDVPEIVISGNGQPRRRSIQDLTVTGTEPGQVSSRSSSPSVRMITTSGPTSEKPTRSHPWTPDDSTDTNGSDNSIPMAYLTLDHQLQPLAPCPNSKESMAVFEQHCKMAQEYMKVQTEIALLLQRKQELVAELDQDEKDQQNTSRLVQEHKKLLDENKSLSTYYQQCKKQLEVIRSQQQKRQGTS
# experiment_summary: Inhibition of TAK1 Lys2 labeling site in human A-375 cells at 0.5 uM by KiNativ Profiling analysis relative to control
# Format: cell-based
measured_property: inhibition (%)
Write it as a number; the unit % goes unstated.

Prompt: Query inhibition for `CNc1cc(Oc2cc(C(=O)Nc3cc(-n4cnc(C)c4)cc(C(F)(F)F)c3)ccc2C)ncn1`
Response: 29.3

Prompt: Query inhibition for `CNc1cc(Oc2cc(C(=O)Nc3cc(N4CCN(C)CC4)cc(C(F)(F)F)c3)ccc2C)ncn1`
Response: 7

Prompt: # return recorded inhibition for entry `CCN1CCN(Cc2ccc(NC(=O)c3ccc(C)c(Oc4ncnc5[nH]ccc45)c3)cc2C(F)(F)F)CC1`
Response: 77.7

Prompt: Find the measured inhibition of `CCN1CCN(Cc2ccc(NC(=O)c3ccc(C)c(Oc4ccnc5[nH]ccc45)c3)cc2C(F)(F)F)CC1` and report it.
Response: 97.1
